Would you mind telling me the reported Ratio THP(cGAMP) IC50/THP(vir) IC50 of each entry?
Test system: IFN induction in cGAMP-stimulated THP1 cells
assay notes: cGAMP stimulated counter cell assay in THP1-Dual cells (THP1(cGAMP) IC50)
Assay type: cell-based, human
experimental setup: Table 1; selectivity for cGAS-inhibition

Name the recorded Ratio THP(cGAMP) IC50/THP(vir) IC50 for C[C@H]1CN2CC[C@@H]1n1c(nc3ccccc31)O[C@H]1C[C@@H](C(=O)O)N(C1)c1nc(nc3c1oc1ccccc13)C(F)(F)COCCCC2=O .
>14442

Need Ratio THP(cGAMP) IC50/THP(vir) IC50 of C[C@H]1CN2CC[C@@H]1n1c(nc3ccccc31)O[C@H]1C[C@@H](C(=O)O)N(C1)c1nc(nc3c1oc1ccccc13)CCCCCOC2=O , thanks.
>156

Recorded Ratio THP(cGAMP) IC50/THP(vir) IC50 of C[C@H]1CN2CC[C@@H]1n1c(nc3ccccc31)O[C@H]1C[C@@H](C(=O)O)N(C1)c1nc(nc3c1oc1cc(Cl)ccc13)CCOCCCC2=O , please.
>1541

What measured Ratio THP(cGAMP) IC50/THP(vir) IC50 goes with C[C@H]1CN2CC[C@@H]1n1c(nc3ccccc31)O[C@H]1C[C@@H](C(=O)O)N(C1)c1nc(nc3c1oc1cc(Cl)ccc13)C(F)(F)CCCOCC2=O ?
>6579

# lookup: Ratio THP(cGAMP) IC50/THP(vir) IC50 of C[C@H]1CN2CC[C@@H]1n1c(nc3ccc(Cl)cc31)O[C@H]1C[C@@H](C(=O)O)N(C1)c1nc(nc3c1oc1ccccc13)CCOCCCC2=O
>2417

Given the compound C[C@H]1CN2CC[C@@H]1n1c(nc3cc(Cl)ccc31)O[C@H]1C[C@@H](C(=O)O)N(C1)c1nc(nc3c1oc1ccccc13)CCOCCCC2=O , what is its reported Ratio THP(cGAMP) IC50/THP(vir) IC50?
>3557

Requested field: Ratio THP(cGAMP) IC50/THP(vir) IC50. Item: C[C@H]1CCCCC(=O)N2CCC(CC2)n2c(nc3ccccc32)O[C@H]2C[C@@H](C(=O)O)N(C2)c2nc1nc1c2oc2ccccc21
>1251

Item C[C@H]1CN2CC[C@@H]1n1c(nc3ccccc31)O[C@H]1C[C@@H](C(=O)O)N(C1)c1nc(nc3c1oc1ccccc13)CCOCCCC2=O has what recorded Ratio THP(cGAMP) IC50/THP(vir) IC50?
>3448
